// provenance: PubChem BioAssay AID2060885

# Tested on: NCI-H23 complex spheroids with HUVEC/MSC, viability
# Protocol Summary: Anticancer human tumor NCI-H23 cell line growth inhibition [RAS];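 note: spheroids exposed to compound for 7 days; 100% = DMSO vehicle control viability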
# Applied Conditions: second compound 0.00949 µM; first compound 0.0316 µM; stronger effect = lower value
Below is a list of entries, each paired with its recorded viability, T/C value.

Compound: CC(Nc1ccc2c(c1)OCCn1cc(N3C(=O)OCC3C(F)F)nc1-2)C(N)=O (centres undefined) + CCn1c(-c2cc(N3CCN(C)CC3)cnc2C(C)OC)c2c3cc(ccc31)-c1csc(n1)CC(NC(=O)C1CC1C)C(=O)N1CCCC(N1)C(=O)OCC(C)(C)C2
Unit Label: %
viability, T/C: 31.1

Compound: CC(=O)OC12COC1CC(O)C1(C)C(=O)C(O)C3=C(C)C(OC(=O)C(O)C(NC(=O)OC(C)(C)C)c4ccccc4)CC(O)(C(OC(=O)c4ccccc4)C21)C3(C)C (centres undefined) + CCn1c(-c2cc(N3CCN(C)CC3)cnc2C(C)OC)c2c3cc(ccc31)-c1csc(n1)CC(NC(=O)C1CC1C)C(=O)N1CCCC(N1)C(=O)OCC(C)(C)C2
Unit Label: %
viability, T/C: 12.5

Compound: C=CC(=O)Nc1cc(Nc2nccc(-c3cn(C)c4ccccc34)n2)c(OC)cc1N(C)CCN(C)C + CCn1c(-c2cc(N3CCN(C)CC3)cnc2C(C)OC)c2c3cc(ccc31)-c1csc(n1)CC(NC(=O)C1CC1C)C(=O)N1CCCC(N1)C(=O)OCC(C)(C)C2
Unit Label: %
viability, T/C: 29.3

Compound: CCC(CC)c1cc(NC2CCC(N)C2)n2nccc2n1 (centres undefined) + CCn1c(-c2cccnc2C(C)OC)c2c3cc(ccc31)N1CCOC(CC(NC(=O)C(C(C)C)N(C)C(=O)C3(F)CCN(C(=O)C#CC(C)(C)N(C)C)CC3)C(=O)N3CCCC(N3)C(=O)OCC(C)(C)C2)C1
Unit Label: %
viability, T/C: 27.7
